measurement-target: mesothelin on OVCAR-3 cells (UniProt Q13421)
measurement-protocol: FACS titration, EC50 on OVCAR-3 against EC50 on NCI-H226
Catalogue of binders with associated x-fold different EC50 on OVCAR-3 vs. NCI-H226
Express your answer in fold, writing the number without its unit.

Worked examples follow.
MOR06631 IgG (antibody, V domains shown) VH: QVQLVQSGAEVKKPGESLKISCKGSGYSFTNYWIGWVRQMPGKGLEWMGFIWPVDSWTQYSPSFQGQVTISADKSISTAYLQWSSLKASDTAMYYCARYGHGMYGGALDVWGQGTLVTVSS VL: DIVLTQSPATLSLSPGERATLSCRASQSVRSSRLAWYQQKPGQAPRLLIYGASKRATGVPARFSGSGSGTDFTLTISSLEPEDFATYYCQQYYDFPPTFGQGTKVEIKR	0.5
MOR06669 IgG (antibody, V domains shown) VH: QVQLVQSGAEVKKPGESLKISCKGSGYSFTNYWIGWVRQMPGKGLEWMGIIWPIDSFTQYSPSFQGQVTISADKSISTAYLQWSSLKASDTAMYYCARYGHGMYGGALDVWGQGTLVTVSS VL: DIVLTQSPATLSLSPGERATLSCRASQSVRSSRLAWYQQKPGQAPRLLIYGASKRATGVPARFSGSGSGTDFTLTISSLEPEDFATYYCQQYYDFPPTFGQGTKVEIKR	3.4

Value of x-fold different EC50 on OVCAR-3 vs. NCI-H226 reported for the binder MOR07111 IgG (antibody, V domains shown) VH: QVQLVQSGAEVKKPGESLKISCKGSGYSFTNYWIGWVRQMPGKGLEWMGVIMPSDSYTRYSPSFQGQVTISADKSISTAYLQWSSLKASDTAMYYCARYGHGMYGGALDVWGQGTLVTVSS VL: DIVLTQSPATLSLSPGERATLSCRASQSVRSSRLAWYQQKPGQAPRLLIYGASKRATGVPARFSGSGSGTDFTLTISSLEPEDFAVYYCQQFYSKPITFGQGTKVEIKR is 1.7
